Measured values drawn from patent US20230150981A1 for this set.

- Measured on: SSTR1 (Homo sapiens, UniProt P30872)
- Construct: purchased Perkin Elmer ES-520-M400UA; host or cells: CHO-K1 membranes
- Sequence (P30872 whole entry): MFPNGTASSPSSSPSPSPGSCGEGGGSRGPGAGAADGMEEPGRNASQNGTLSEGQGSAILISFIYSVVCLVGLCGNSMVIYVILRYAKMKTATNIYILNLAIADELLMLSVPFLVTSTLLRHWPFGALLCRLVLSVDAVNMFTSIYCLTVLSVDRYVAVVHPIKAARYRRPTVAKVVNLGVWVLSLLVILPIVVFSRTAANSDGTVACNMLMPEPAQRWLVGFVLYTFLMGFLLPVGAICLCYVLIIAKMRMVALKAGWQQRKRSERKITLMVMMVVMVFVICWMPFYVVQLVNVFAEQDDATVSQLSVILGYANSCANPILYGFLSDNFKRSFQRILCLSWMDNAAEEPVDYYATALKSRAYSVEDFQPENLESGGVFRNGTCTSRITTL
- Measurement description: SSTR1 I-125 somatostatin competition binding assay for selectivity versus SSTR1 (CHO-K1 membranes)
- Reported conditions: competition with I-125 somatostatin, membranes from CHO-K1 overexpressing SSTR1; read-out: SSTR1 Binding pIC50 (converted)
Experimental readout: IC50

Solved cases below.
>  <Compound>
Cc1cccc2c(C(C)(C)NC(=O)CC3CCCCN3C)nccc12 (stereo not drawn) [Example 7]

>  <Experimental readout>
IC50

>  <Value reported>
5.01 µM

$$$$
>  <Compound>
COc1c(F)cccc1C(C)(C)NC(=O)C(C)CN1CCC1 (stereo not drawn) [Example 170]

>  <Experimental readout>
IC50

>  <Value reported>
5.01 µM

$$$$
>  <Compound>
CN1CCC[C@@H]1CC(=O)NC(C)(C)c1ccc(Cl)cc1 [Example 40]

>  <Experimental readout>
IC50

>  <Value reported>
20 µM

$$$$
>  <Compound>
C[C@@H](CN1CCC1)C(=O)NC(C)(C)c1ccc(Cl)cc1 (single isomer, unassigned) [Example 155]

>  <Experimental readout>
IC50

>  <Value reported>
3.16 µM

$$$$
>  <Compound>
O=C(CCN1CCC1)NC(c1cccc(Cl)c1)C(F)(F)F (single isomer, unassigned) [Example 192]

>  <Experimental readout>
IC50

>  <Value reported>
31.6 µM

$$$$
>  <Compound>
C[C@H](CN1CCCC1)C(=O)NC(C)(C)c1ccccc1Cl (single isomer, unassigned) [Example 136]

>  <Experimental readout>
IC50

>  <Value reported>
10 µM

$$$$

Which IC50 is listed for CN1CCC[C@H]1CC(=O)NC(C)(C)[C@@H]1CCc2ccccc2O1 (single isomer, unassigned) [Example 128] ?
10 µM

Entry Cc1c(F)cccc1C(C)(C)NC(=O)CCN1CCC1 [Example 166] : reported IC50 = ?
39.8 µM

What value of IC50 has been recorded for this entry: CC(C)(NC(=O)CC1NCCC1(F)F)c1nccc2ccccc12 (stereo not drawn) [Example 100]
> 50.1 µM
